- Tested on: RXF 631
- measurement protocol: NCI tumour cell line growth inhibition, 48 h
Activity calls are given as the source filed them. Cut-off read from the data, not from the text of the source: active = GI50 up to about 1.1 µM and inactive = higher.
recorded endpoint: GI50

{"compound": "CC1CCCP(=O)(c2ccccc2)CC1 (stereo unspecified)", "measurement target": "RXF 631", "recorded endpoint": "GI50", "observed measurement": "> 100 µM (inactive)"}
{"compound": "Cc1cccc(NC(=O)CC(=O)N2N=C(N(CCC#N)c3ccc(Cl)cc3)CC2c2ccccc2)c1 (stereo unspecified)", "measurement target": "RXF 631", "recorded endpoint": "GI50", "observed measurement": "> 100 µM (inactive)"}
{"compound": "COc1ccc2cccc(C(=O)c3ccc(C)c4c3CCC4)c2c1", "measurement target": "RXF 631", "recorded endpoint": "GI50", "observed measurement": "23 µM (inactive)"}
{"compound": "Cc1cc(Cl)ccc1NC(=O)CCCC(=O)C(C(=O)c1ccccc1)c1ccccc1 (stereo unspecified)", "measurement target": "RXF 631", "recorded endpoint": "GI50", "observed measurement": "> 100 µM (inactive)"}
{"compound": "Cc1ccc(Oc2ccc(C)cc2[N+](=O)[O-])cc1", "measurement target": "RXF 631", "recorded endpoint": "GI50", "observed measurement": "> 100 µM (inactive)"}
{"compound": "O=C1C=C(Nc2ccccc2C(=O)CC(=O)C(=O)Nc2cccc(C(F)(F)F)c2)c2ccccc2C1=O", "measurement target": "RXF 631", "recorded endpoint": "GI50", "observed measurement": "> 100 µM (inactive)"}
{"compound": "O=C(N[C@H]1CC2(C=C(I)C(=O)C(I)=C2)OC1=O)OCc1ccccc1", "measurement target": "RXF 631", "recorded endpoint": "GI50", "observed measurement": "17.1 µM (inactive)"}
{"compound": "O=C(NN1C(=O)CSC1c1ccc(Cl)c(Cl)c1)c1ccncc1 (stereo unspecified)", "measurement target": "RXF 631", "recorded endpoint": "GI50", "observed measurement": "94.4 µM (inactive)"}
{"compound": "Cc1ccc(S(=O)OC23CC4CC(CC(C4)C2)C3)cc1 (stereo unspecified)", "measurement target": "RXF 631", "recorded endpoint": "GI50", "observed measurement": "72.8 µM (inactive)"}
{"compound": "CCOC(=O)C(=O)Nc1ccccc1C(C)C", "measurement target": "RXF 631", "recorded endpoint": "GI50", "observed measurement": "> 100 µM (inactive)"}

# ---- query compound ----
Query CC(=O)CC(=O)Nc1ccc(OS(N)(=O)=O)cc1 yields GI50 of > 100 µM (inactive)
